Molecular target: T1, human 4-1BB on CHO-K1 cells (human, UniProt Q07011 24-255)
T1 construct: whole, on cells; also called CHO-K1/hu 4-1BB; CHO-K1/hu4-1BB
T1 sequence (Q07011 24-255): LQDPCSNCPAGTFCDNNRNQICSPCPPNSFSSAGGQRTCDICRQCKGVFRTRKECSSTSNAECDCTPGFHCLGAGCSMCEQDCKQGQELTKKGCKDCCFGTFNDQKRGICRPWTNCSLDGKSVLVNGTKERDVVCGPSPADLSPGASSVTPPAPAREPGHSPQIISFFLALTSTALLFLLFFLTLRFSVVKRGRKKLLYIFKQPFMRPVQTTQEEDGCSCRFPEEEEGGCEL
Assay: FACS, CHO-K1/hu 4-1BB cells
ASSAY_ENDPOINT: binding result

Sample answers from the record:
PR007296 (antibody, human IgG1, V domains shown, HCAb, heavy chain only, human IgG1 Fc; also called R1016P147B10) VH: EVQLVESGGGLVKPGGSLRLSCVASGFTFSDYYMSWFRQAPGKGLEWVSYISGSGTTIDYADSVKGRFTISRDNAKNSLYLQMNSLRAEDTAVYYCAREREAVAGTLDFDNWGQGTPVTVSS = binds
PR001842 (antibody, human IgG1, V domains shown, HCAb, heavy chain only, human IgG1 Fc; also called 1016P0045A3) VH: EVQLLESGGGLVQPGGSLRLSCAASGFTFSSYAMSWGRQAPGKGLEWVSAISGSGGSTYYADSVKGRFTISRDNSKNTLYLHMNSLRAEDTAVYYCAKEKVATTGDYYYDMDVWGQGTTVTVSS = binds
PR001767 (antibody, human IgG1, V domains shown, HCAb, heavy chain only, human IgG1 Fc; also called 1016P0038G1) VH: EVQLVETGGGLIQPGGSLRLSCAASGFTVSSNYMSWVRQAPGKGLEWVSVIYSDGSTYYADSVKGRFTISRDNSKNTLYLQMNSLRAEDTAVYYCARDRYYGSGNYPTAYYGMDVRGQGTTVTVSS = binds
PR007288 (antibody, human IgG1, V domains shown, HCAb, heavy chain only, human IgG1 Fc; also called R1016P144G12) VH: EVQLVESGGGLVKPGGSLRLSCAASGFTFSDYYMSWFRQAPGKGLEWVSYISGSGSIIDYADSVKGRFTISRDNAKNSLYLQMNSLRAEDTAVYYCSREREAVAGTLDFDYWGQGTLVTVSS = binds

For the binder PR007289 (antibody, human IgG1, V domains shown, HCAb, heavy chain only, human IgG1 Fc; also called R1016P145B11) VH: EVQLVESGGGLVKPGGSLRLSCAASGFTFSDYYMSWFRQAPGKGLEWVSYISSSGSTQDYADSVKGRFTISRDNAKNSLYLQMNSLRAEDTAVYYCAREREPVAGTLDFDNWGQGTPVTVSS , what binding result is on record?
binds
